Where do the numbers come from? From PubChem BioAssay AID602252.

Consider the following compounds; for each one, report its inhibition.
Molecular target: Golgi-associated PDZ and coiled-coil motif-containing protein (Homo sapiens) (UniProt Q9HD26)
Assay: untagged CAL PDZ binding inhibitors, primary screen, biochemical, fluorescence polarization, HTS (AID 602252);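 also: 0% = DMSO neutral control and 100% = excess unlabeled competitor peptide PRC23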
Details: purified CAL PDZ, TMR-peptide fluorescence polarization, 1 h; at 24.9 µM; hits give high values
About 2,700 (0.9%) of roughly 300,000 compounds were called active. This excerpt belongs to a sample that is enriched for actives.
One number for each entry, in %.

The cases that follow already have their inhibition on record.
C=CCn1c(COc2ccccc2F)nnc1SCC(=O)N1CC(=O)Nc2ccccc21; 56
CC(=O)NC(=S)Nc1ccc(NC(=S)NC(=O)c2ccc([N+](=O)[O-])cc2)cc1; 56.3
C/C(=N/NC(=O)c1cc(Cl)ccc1O)C12CC3CC(CC(C3)C1)C2; 0.948

Field: inhibition. Fill in for each record below.
1. O=C(Nc1cccc(S(=O)(=O)N2CCOCC2)c1)C12CC3CC(CC(C3)C1)C2
2. O=C(N/N=C1\CCSC1)c1cc(Cl)ccc1O
3. COc1ccc(OCC(=O)N2CCN(C(=O)COc3ccccc3)CC2)cc1
4. C=Cn1c(C(=O)O)ccc1-c1ccc(OC)cc1

Solution:
[-2.14, 39.8, -1.31, 37.7]

---

Biological target: Golgi-associated PDZ and coiled-coil motif-containing protein (Homo sapiens) (UniProt Q9HD26)
Experiment: untagged CAL PDZ binding inhibitors, primary screen, biochemical, fluorescence polarization, HTS (AID 602252);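 also: 0% = DMSO neutral control and 100% = excess unlabeled competitor peptide PRC23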
Details: purified CAL PDZ, TMR-peptide fluorescence polarization, 1 h; at 24.9 µM; hits give high values
Screen size: about 300,000 compounds; about 2,700 (0.9%) were called active. For the sample, actives were picked, then their nearest neighbours and some compounds at random.
Consider the following compounds; for each one, report its inhibition.
Numbers only, in %.

CN(C(=O)c1cccc(NC(=O)Cc2ccc([N+](=O)[O-])cc2)c1)C1CCC1; -2.37
O=C1C=CN2CCCC2CC1 (stereo not given); -1.74
C=CCN1C=C(C(=O)c2ccccc2)C(=O)CC1; 6.82
O=C(Nc1cccc(-c2nnc(-c3ccccc3)o2)c1)C1CCCO1 (stereo not given); -1.93
CCCN(CC(=O)NC(=O)NC1CCCCC1)CC(=O)Nc1cc(Cl)ccc1Cl; -3.68
CC(C)Cc1nnc(NC(=O)CCc2ccccc2)s1; -1.93
COc1ccc(-c2ccc3c(c2)[C@@H]2C[C@H](N(C)S(=O)(=O)c4ccccc4)[C@H]([C@H](C)O)C(=O)N2CC3)cc1; -5.77
CC[C@]12c3[nH]c4cc(CCC(=O)N(C)C)ccc4c3CCN1C(=O)[C@@H](CC(=O)NCC13CC4CC(CC(C4)C1)C3)C[C@@H]2C(=O)N1CCN(C(=O)C2CC2)CC1; 5.74
CC(=O)Nc1ccc(S(=O)(=O)Nc2ccc(N3CCCCC3)cc2)cc1; -0.222

Query compound follows.
Exercise: State the recorded inhibition for this entry: COc1ccc(CCNC(=O)c2ccc(NC(=O)CC3SC(N4CCCCC4)=NC3=O)cc2)cc1OC (stereo not given)
Solution: -1.27

---

Molecular target: Golgi-associated PDZ and coiled-coil motif-containing protein (Homo sapiens)
Assay: untagged CAL PDZ binding inhibitors, primary screen, biochemical, fluorescence polarization, HTS (AID 602252);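 also: 0% = DMSO neutral control and 100% = excess unlabeled competitor peptide PRC23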
Conditions: purified CAL PDZ, TMR-peptide fluorescence polarization, 1 h; at 24.9 µM; hits give high values
Hit rate of the full screen: of about 300,000 compounds, about 2,700 (0.9%) were called active. The sample holds actives, similar compounds and a random draw of the others, so the mix is not that of the screen.
Property Label: inhibition

CC(C)(C)OC(=O)C[C@@H]1C/C=C\C[C@@H](CC(=O)N[C@H](CO)Cc2ccccc2)C(=O)NCCOC1=O; -9.11% (inactive)
COc1ccc(CNCCCNCc2ccc(OC)c(OC)c2)cc1OC; 2.4% (inactive)

Field: inhibition. Fill in for each record below.
1. COC1C(CO)OC(n2cnc3c(=S)nc(N)[nH]c32)C1O (stereo not given)
2. O=C1c2oc3ccccc3c(=O)c2C(c2cccc(O)c2)N1c1ccccn1 (stereo not given)
3. CC(C)N(C(=O)CSc1nnc(NC2CC2)s1)c1ccccc1
4. CC[C@@H]1CCCCc2ccccc2[C@@H](C(=O)C[C@H](O)CC(C)=O)OC1=O
5. CCC(CO)Oc1cc(NC(=O)c2cccc3ccccc23)c2ncn(C(C)C)c2c1 (stereo not given)
6. COCCN1C(=O)c2oc3c(C)cc(C)cc3c(=O)c2C1c1cccc(O)c1 (stereo not given)
7. CCOC(=O)c1ccccc1OC(=O)Oc1ccccc1C(=O)OCC
8. Cc1csc(SCC(=O)N(c2ccccc2)C(C)C)n1

Solution:
-4.66% (inactive)
-1.77% (inactive)
31.5% (active)
1.2% (inactive)
-1.65% (inactive)
47.9% (active)
1.49% (inactive)
-3.25% (inactive)

---

Molecular target: Golgi-associated PDZ and coiled-coil motif-containing protein (Homo sapiens) (UniProt Q9HD26)
Test: untagged CAL PDZ binding inhibitors, primary screen, biochemical, fluorescence polarization, HTS (AID 602252);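 also: 0% = DMSO neutral control and 100% = excess unlabeled competitor peptide PRC23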
Conditions: purified CAL PDZ, TMR-peptide fluorescence polarization, 1 h; at 24.9 µM; hits give high values
About 2,700 (0.9%) of roughly 300,000 compounds were called active. The full list was thinned out, with actives kept by preference.
Property Label: inhibition (%)
One number for each entry, in %.

The cases that follow already have their inhibition on record.
O=C(COC(=O)CNC(=O)c1ccccc1F)NCC(F)(F)F; -0.464
O=C(CNC(=O)c1ccccc1F)OCC(=O)c1c[nH]c2ccccc12; 53.7
C=CC(=O)Nc1ccc(Nc2ccnc(Nc3ccc(N4CCN(C)CC4)cc3)n2)cc1; -0.863
O=C(COC(=O)C12CC3CC(CC(O)(C3)C1)C2)NC12CC3CC(CC(C3)C1)C2; -5.51
Cc1ccc(S(=O)(=O)N2CCN(C(=O)COC(=O)/C=C/c3cccc(Cl)c3)CC2)c(C)c1; -0.868

Field: inhibition. Fill in for each record below.
1. CCN1C[C@@H]2[C@@H]3C(=O)N(C)C(=O)[C@@H]3[C@](C)(C1=O)N2C(=O)c1ccccc1
2. CCCCNC(=O)c1ccc(-n2c(=S)[nH]c3ccccc3c2=O)cc1
3. CCCCn1c(=S)[nH]c2ccccc2c1=O
4. O=C(CNCCO)NC12CC3CC(CC(C3)C1)C2
5. CC(=O)OCC1(O)CC23CCC4c5ccoc5CCC4(C)C2CCC1C3 (stereo not given)

Solution:
1. -2.56
2. 41.5
3. -2.2
4. 40.5
5. -3.61

---

Molecular target: Golgi-associated PDZ and coiled-coil motif-containing protein (Homo sapiens) (UniProt Q9HD26)
Experiment: untagged CAL PDZ binding inhibitors, primary screen, biochemical, fluorescence polarization, HTS (AID 602252);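 also: 0% = DMSO neutral control and 100% = excess unlabeled competitor peptide PRC23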
Settings: purified CAL PDZ, TMR-peptide fluorescence polarization, 1 h; at 24.9 µM; hits give high values
About 2,700 (0.9%) of roughly 300,000 compounds were called active. The entries come from a sample that favours actives as a whole.
Property Label: inhibition (%)
Answers are plain numbers, in %.

Cc1ccc(CNC(=O)Cn2cnc3c(NCc4ccccc4)ncnc32)o1; -0.092
Nc1ncnc2c1ncn2[C@@H]1O[C@H](CNCc2cccn2-c2nccs2)[C@@H](O)[C@H]1O; -2.1
Cc1cccc(OCC(=O)Nc2ccc(C(=O)O)cc2NC(=O)COc2cccc(C)c2)c1; -0.14

Field: inhibition. Fill in for each record below.
1. Cc1ccc(OCC(=O)Nc2cccc3c2CCCC3)cc1C
2. C=CC[C@@H](CC(=O)N[C@@H](CO)Cc1ccccc1)C(=O)NCCOC(=O)[C@@H](CC=C)CC(=O)OC(C)(C)C

Solution:
1.05
-4.88

---

Molecular target: Golgi-associated PDZ and coiled-coil motif-containing protein (Homo sapiens)
Experiment: untagged CAL PDZ binding inhibitors, primary screen, biochemical, fluorescence polarization, HTS (AID 602252);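 also: 0% = DMSO neutral control and 100% = excess unlabeled competitor peptide PRC23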
Details: purified CAL PDZ, TMR-peptide fluorescence polarization, 1 h; at 24.9 µM; hits give high values
Screen size: about 300,000 compounds; about 2,700 (0.9%) were called active. The full list was thinned out, with actives kept by preference.
Consider the following compounds; for each one, report its inhibition.
Answers are plain numbers, in %.

CCN(CC(=O)NCc1ccco1)S(=O)(=O)c1ccc(F)cc1; -5.17

Field: inhibition. Fill in for each record below.
1. COc1ccc(S(=O)(=O)Nc2ccc(O)c(Sc3nc4ccccc4s3)c2)cc1
2. NS(=O)(=O)c1ccc(CCNC(=O)c2ccc(Cl)c(S(=O)(=O)N3CCCCCC3)c2)cc1
3. O=C(O)CN(Cc1ccco1)S(=O)(=O)c1ccc(F)cc1
4. O=C1OCC2=C1C(c1ccc(Cl)cc1)c1cc3c(cc1O2)OCO3 (stereo not given)
5. O=C(O)CN(Cc1ccco1)S(=O)(=O)c1ccccc1
6. C=CCOC(=O)N1CCC2CC1c1cc(-c3ccc(OC)cc3)ccc12 (stereo not given)
7. O=C1N[C@@H](c2ccccc2)COC(=O)[C@H](Cc2ccc(F)cc2)C/C=C\C[C@@H]1CC(=O)N(CCO)Cc1ccccc1

Solution:
[40.1, -16.5, 41.2, 7.51, -2.04, -1.31, 2.21]

Field: inhibition. Fill in for each record below.
1. CC(C)(C)C(=O)Nc1cccc(-c2ccc[nH]2)n1
2. CCCCCCCCNS(=O)(=O)CCNC1CCCCC1

Solution:
1: -1.63; 2: 0.068
